MEASUREMENT PROTOCOL: Quantitative high throughput screen for delayed death inhibitors of the malarial parasite plastid, 48 hour incubation (AID 488752); note: nearly all actives have a fitted effect of over 65% in size
SETTINGS: Plasmodium falciparum growth; series mostly up to 28.7 µM
Results filed as inconclusive are left out. Calls of active or inactive are those of the source. Calls come from the whole dose curve; as a rule, active = well fitted inhibition curve with a large enough effect; inconclusive = small, poorly fitted or top-dose-only effect, or effect the other way; inactive = flat fitted curve, though single readings scatter.
API: response.call in active, inactive

Problem: Each molecule tested received a call. Report the one for COc1ccccc1N1CCNCC1 .
Result: inactive

Problem: Each molecule tested received a call. Report the one for O=c1[nH]c2ccccc2n1CCCN1CCC(n2c(=O)[nH]c3cc(Cl)ccc32)CC1 .
Result: active

Problem: Each molecule tested received a call. Report the one for O=c1[nH]cc(F)c(=O)[nH]1 .
Result: active

Problem: Each molecule tested received a call. Report the one for O=C1NCN(c2ccccc2)C12CCN(CC1COc3ccccc3O1)CC2 (configuration not stated) .
Result: inactive

Problem: Each molecule tested received a call. Report the one for NCC(O)c1ccc(O)cc1 (configuration not stated) .
Result: inactive

Problem: Each molecule tested received a call. Report the one for N#CC(C#N)=Cc1ccc(O)c(O)c1 .
Result: inactive

Problem: Each molecule tested received a call. Report the one for CCCC(C)(COC(N)=O)COC(=O)NC(C)C (configuration not stated) .
Result: inactive
